Molecular target: histamine 3 receptor (H3R) (Homo sapiens)
Construct: expressed in transfected cells; host or cells: CHO cells (HR3-CHO cell line), membranes
Sequence (Q9Y5N1 whole entry): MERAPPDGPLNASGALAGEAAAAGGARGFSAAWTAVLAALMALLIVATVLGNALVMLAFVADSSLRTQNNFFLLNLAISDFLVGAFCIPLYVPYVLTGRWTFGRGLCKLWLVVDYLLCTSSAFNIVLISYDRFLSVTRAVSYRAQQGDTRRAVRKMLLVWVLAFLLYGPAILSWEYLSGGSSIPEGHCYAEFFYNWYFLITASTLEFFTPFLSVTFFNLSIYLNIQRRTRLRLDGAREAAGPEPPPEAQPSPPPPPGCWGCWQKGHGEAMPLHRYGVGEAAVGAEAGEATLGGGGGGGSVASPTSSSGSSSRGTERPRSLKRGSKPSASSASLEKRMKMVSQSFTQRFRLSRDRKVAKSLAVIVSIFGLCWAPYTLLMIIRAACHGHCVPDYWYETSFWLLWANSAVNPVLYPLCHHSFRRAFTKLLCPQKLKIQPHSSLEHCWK
Experiment: Binding assay with 3H-(R)α-methylhistamine (competition binding, membranes of the human HR3-CHO cell line)
Conditions: competition with 3H(R)α-Methylhistamine 1 nM, Ki calculated from IC50 by Cheng-Prusoff equation
Structures can show the parent of a compound that is named as a salt.
readout: pKi
Answers are plain numbers, as −log10 of the molar value.

These recorded examples may help you get a feel for the data.
O=C(c1ccc2cc(OCCCN3CCCCC3)ccc2c1)N1CCCCC1 [Example 1, hydrochloride] : 7.59
CC1CCN(C(=O)c2ccc3cc(OCCC4CCCN4C)ccc3c2)CC1 (stereo not drawn) [Example 31, hydrochloride] : 6.24

// map CC1CCCCN1CCCOc1ccc2cc(C(=O)N(C)Cc3ccccc3)ccc2c1 (stereo not drawn) [Example 13, hydrochloride] to recorded pKi (system: histamine 3 receptor (H3R) (Homo sapiens))
6.95

Data credit: patent US7608617B2
